# MIC listing for each entry below
# System: Mycoplasmoides pneumoniae
# testDetails: Antibacterial activity against Mycoplasma pneumoniae 18-1 after 18 hrs by microbroth dilution method
# Format: functional
# testParameters: 18-1, 18 h
measurementType: MIC

INSERT INTO assay_data (compound, readoutvalue) VALUES
  ('C[C@H]1NCc2cc(-c3ccc4c(=O)c(C(=O)O)cn(C5CC5)c4c3OC(F)F)ccc21', '0.12 µg/mL'),
  ('COc1c(N2CC3(CC3)[C@](C)(N)C2)c(F)cc2c(=O)c(C(=O)O)cn([C@@H]3C[C@@H]3F)c12', '0.12 µg/mL'),
  ('COc1c(N2C[C@@H]3CCCN[C@@H]3C2)c(F)cc2c(=O)c(C(=O)O)cn(C3CC3)c12', '0.25 µg/mL'),
  ('CO/N=C1\CN(c2nc3c(cc2F)c(=O)c(C(=O)O)cn3C2CC2)CC1CN (stereo not given)', '0.25 µg/mL'),
  ('C[C@H]1COc2c(N3CCN(C)CC3)c(F)cc3c(=O)c(C(=O)O)cn1c23.C[C@H]1COc2c(N3CCN(C)CC3)c(F)cc3c(=O)c(C(=O)O)cn1c23.O', '2 µg/mL');

Value source: ChEMBL document CHEMBL2321831
